Here the recorded Internalization (%), FACS, 0.5 µg/ml, 4 h is given for each entry.
- target.or.test.system: human PD-L1 expressed on cell surface (human, UniProt Q9NZQ7 19-290)
- Sequence (Q9NZQ7 19-290 limits assumed): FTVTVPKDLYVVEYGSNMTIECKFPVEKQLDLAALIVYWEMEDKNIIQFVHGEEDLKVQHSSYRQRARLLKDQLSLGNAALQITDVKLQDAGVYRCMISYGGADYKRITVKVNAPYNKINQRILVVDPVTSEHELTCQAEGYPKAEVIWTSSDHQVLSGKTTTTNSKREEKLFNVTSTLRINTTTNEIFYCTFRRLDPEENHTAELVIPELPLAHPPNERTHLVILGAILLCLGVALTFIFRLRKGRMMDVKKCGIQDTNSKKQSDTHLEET
- assay.overview: cell-based or functional assay
recorded.metric: Internalization (%), FACS, 0.5 µg/ml, 4 h

INSERT INTO assay_data (binder, measured) VALUES
  ('69D10 (antibody, human IgG1, V domains shown) VH: QEQLEESGGGLVQPEGSLTLTCTASGFSFSGDWYMSWVRQAPGKGLEWIASIYSGSLNTYYATWAKGRFTVSLTSSTTVTLQMTSLTAADTATYFCARRNKNADYGHFDLWGPGTLVTVSS VL: YDMTQTPASVEVAVGGTVTIKCQASQSIGNALAWYQQKPGQPPKLLIYATSTLASGVPSRFKGSGSGTEFTLTISDLECGDAATYYCQQGWTVSSLDNAFGGGTEVVAK', '18%'),
  ('56E5 (antibody, human IgG1, V domains shown) VH: QEQLEESGGGLVQPEGSLTLTCTASGFSFSGDYYMSWVRQAPGKGLEWIASIYTGSLNTYYATWAKGRFTISLTSSTTVTLQMTSLTAADTATYFCARRHKNADYGHFDLWGPGTLVTVSS VL: YDMTQTPGSVEVAVGGTVTIKCQASQSINDRLAWYQQTPGQPPKLLIYGASTLASGVPSRFKGSGSGTEFTLTISDLECADAATYYCQQGWTVSSLDNAFGGGTEVVAK', '19.8%'),
  ('33H7 (antibody, human IgG1, V domains shown) VH: QEQLVESGGGLVQPEGSLTVTCTASGFDLSRYFYMSWVRQAPGKGLEWIASISTGSDITDYASWAKGRFTISKTSSTTVTLQMTTLTAADTAIYFCARWTSGGGGFGLWGPGTLVTVSS VL: QVLTQTASPVSAAVGGTVTLNCQSSQSIYNNYLSWYQQRAGQPPKLLIYSTATLASGVPSRFKGSGSGTQFTLTISEIQCEDAATYYCQGYYSGYIWTFGGGTEVVVK', '14.2%');
